Would you kindly list koff for each of these binders?
- TARGET ENTITY: T1, biotinylated peptide Bt-AEGPPGPQG (SEQ ID NO: 14)
- T1 construct: also called biotinylated peptide 040; peptide 040
- T1 peptide: Biotin-AEGPPGPQG
- EXPERIMENT SUMMARY: BIAcore, scFv over biotinylated peptide SEQ ID NO: 14 on streptavidin chip, dissociation 280 s
No end group written: not given here. *: point of attachment. Biotin = O=C1N[C@H]2[C@H](CS[C@H]2CCCCC(=O)*)N1
Express it in s⁻¹; write the number only.

Exercise: Which value of koff has been reported for 9A4 scFv CDR3 VH mutant clone 20B (scFv, Derived from p9A4ICAT7-1) scFv: QIQLVQSGPELKKPGETVKISCKASGYTFTDYSIHWVKQAPGKGLKWMGWINTETGEPTYADDFKGRFAFSLETSASTAYLQINNLKNEDTATYFCGRGGNLDHCGQGTTLTVSSGGGGSGGGGSGGGGSQIVLTQSPVFMSASPGEKVTMTCSASSSVSYMYWYQQKPGSSPRLLIHATSNLASGVPVRFSGGGSGTSYSLTISRMEAEDAATYYCQQWRSYTRTFGGGTKLEIIAAAHHHHHHGAAEQKLISEEDLNGAA in the records?
Solution: 0.0028

Exercise: What do you get for 9A4 scFv (VH-linker-VL-HIS-MYC tags) from p9A4ICAT7-1 (scFv, Monomer purified from E. coli TG1; also called 9A4ICAT7-1 scFv; p9A4lCAT7-1) scFv: QIQLVQSGPELKKPGETVKISCKASGYTFTDYSIHWVKQAPGKGLKWMGWINTETGEPTYADDFKGRFAFSLETSASTAYLQINNLKNEDTATYFCARGGSLDYWGQGTTLTVSSGGGGSGGGGSGGGGSQIVLTQSPVFMSASPGEKVTMTCSASSSVSYMYWYQQKPGSSPRLLIHATSNLASGVPVRFSGGGSGTSYSLTISRMEAEDAATYYCQQWRSYTRTFGGGTKLEIIAAAHHHHHHGAAEQKLISEEDLNGAA ?
Solution: 0.003

Exercise: Do the same for 9A4 scFv CDR3 VH mutant clone 8D (scFv, Derived from p9A4ICAT7-1) scFv: QIQLVQSGPELKKPGETVKISCKASGYTFTDYSIHWVKQAPGKGLKWMGWINTETGEPTYADDFKGRFAFSLETSASTAYLQINNLKNEDTATYFCARGGSLDNWGQGTTLTVSSGGGGSGGGGSGGGGSQIVLTQSPVFMSASPGEKVTMTCSASSSVSYMYWYQQKPGSSPRLLIHATSNLASGVPVRFSGGGSGTSYSLTISRMEAEDAATYYCQQWRSYTRTFGGGTKLEIIAAAHHHHHHGAAEQKLISEEDLNGAA please
Solution: 0.0104
